molecular target: Gal(a1-4)Gal(b1-4)GlcNAc(b1-3)Gal(b1-4)Glc; test: glycan array binding signal (z-score within array); higher = stronger binding; details: glycan notation: IUPAC condensed, linker removed
The full list was thinned out, with the strongest signals kept by preference.
Assign glycan array binding signal (z-score) to each entry below.
Answer using only a numeral; do not append any unit.

In one line, give reported glycan array binding signal (z-score) of the entry OGAA (protein) MVQKESQATLEERESELSSNPAASAGASLEPPAAPAPGEDNPAGAGGAAVAGAAGGARRFLCGVVEGFYGRPWVMEQRKELFRRLQKWELNTYLYAPKDDYKHRMFWREMYSVEEAEQLMTLISAAREYEIEFIYAISPGLDITFSNPKEVSTLKRKLDQVSQFGCRSFALLFADIDHNMCAADKEVFSSFAHAQVSITNEIYQYLGEPETFLFCPTEYCGTFCYPNVSQSPYLRTVGEKLLPGIEVLWTGPKVVSKEIPVESIEEVSKIIKRAPVIWDNIHANDYDQKRLFLGPYKGRSTELIPRLKGVLTNPNCEFEANYVAIHTLATWYKSNMNGVRKDVVMTDSEDSTVSIQIKLENEGSDEDIETDVLYSPQMALKLALTEWLQEFGVPHQY .
-0.098

For the binder PpFlo1 (Pichia pastoris) (protein) MGSSHHHHHHSSGLVPRGSHMQESGDGDISDSAYACDIDATRYDGFNATIYEFQPGDGRLTRDPVFMSTGYLNRTQLHSITGVTDPGFSIYTPGVPTTTLYGIPNVNWENLLLELKGYFRAEVSGDYGLSLRNIDDSAILFFGKETAFQCCNENSISNEASTDYSLFTIFRQEGDETTNLDSFTYTQYLEAGKYYPVRTFFVNIERHAVFNFTMTLPDGTELTDFHNYIYQFGALDEEQCQA , report glycan array binding signal (z-score).
-0.25
